Listing of entries alongside the reported pIC50.
ASSAYED_TARGET: hCatS (Homo sapiens, UniProt P25774)
Sequence (P25774 115-331): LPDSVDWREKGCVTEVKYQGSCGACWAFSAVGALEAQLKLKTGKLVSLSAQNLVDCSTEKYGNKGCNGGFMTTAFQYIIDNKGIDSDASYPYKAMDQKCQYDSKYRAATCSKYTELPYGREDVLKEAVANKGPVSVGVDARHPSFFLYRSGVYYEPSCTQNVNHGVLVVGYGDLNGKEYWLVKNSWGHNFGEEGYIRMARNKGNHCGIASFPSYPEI
TEST_PROTOCOL: In vitro inhibition of purified human Cathepsin S (Z-FVR-AMC)
Assay type: biochemical
CONDITION_SET: 30 min incubation with inhibitor, mean ± SD, triplicate
Keep it numeric: pIC50 is minus log10 of the concentration in mol/L.

Input CC(C)(F)C[C@H](N[C@@H](c1ccc(-c2ccc(S(C)(=O)=O)cc2)cc1)C(F)(F)F)C(=O)NC1(C#N)CC1 [ODN, reference compound] . Output pIC50: 7.61

Input `C#CCNC(=O)[C@H](CC(C)(C)F)N[C@@H](c1ccc(-c2ccc(S(C)(=O)=O)cc2)cc1)C(F)(F)F` . Output pIC50: 4.97

Input CC(C)(F)C[C@H](N[C@@H](c1ccc(-c2ccc(S(C)(=O)=O)cc2)cc1)C(F)(F)F)C(=O)NCC#N [Compound 2, reference compound] . Output pIC50: 7.75

Input C#CC(C)NC(=O)[C@H](CC(C)(C)F)N[C@@H](c1ccc(-c2ccc(S(C)(=O)=O)cc2)cc1)C(F)(F)F (mixture of isomers) . Output pIC50: 4.80
